Items are presented alongside their recorded interaction score.
- testedTarget: T1, P9bH1
- T1 chain: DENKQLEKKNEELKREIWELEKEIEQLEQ
- procedureDetails: two-hybrid library CCNG1;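 also: natural log of median RNA to DNA barcode read ratio; higher means stronger binding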

>  <binder>
DKIKQLKKKNEELKRKNWELKKKIEQLKQ [P2bH1]

>  <interaction score>
0.693

$$$$
>  <binder>
DENKQLEKKIEELKRKNWELKKEIEQLEQ [P5bH1]

>  <interaction score>
-0.9

$$$$
>  <binder>
DKNKQLKKENEELERKIWELKKKIEQLKQ [P10bH1]

>  <interaction score>
1.04

$$$$
>  <binder>
DKIKQLKKENEELERKIWELKKENEQLEQ [P8bH1]

>  <interaction score>
-0.01

$$$$
>  <binder>
DENKQLEKEIEELEREIWELEKKNEQLKQ [P11bH1]

>  <interaction score>
-0.076

$$$$
